# Lookup of reported Pharmacophore torsion angle a(N1, CA1, O2, H4) keyed by entry
# Target desc: MASP-2 CCP2-SP (Homo sapiens (Human))
# Run description: MASP-2 co-crystallization, X-ray crystallography and structure analysis (H-bonds, van der Waals contacts)
# Assay setup: Table A7-1; between pharmacophore elements of the bound compound
Counter-ions that a name gives are not always drawn.
Readout kind: Pharmacophore torsion angle a(N1, CA1, O2, H4)

N=C(N)c1ccc(CNC(=O)C(CF)NC(=O)[C@H](N)CCc2ccccc2)cc1 (stereo partly drawn) [compound 1050, Dihydrochloride]: −131.38
CNC(=O)c1ccc2c(=O)n(Cc3ccccc3)c(=O)n(CC(=O)NCc3ccc(C(=N)N)cc3)c2c1: −154.72
C[C@H](NC(=O)[C@H](N)CCc1cccc(Cl)c1)C(=O)NCc1ccc(C(=N)N)cc1: −125.05
C[C@H](NC(=O)[C@H]1Cc2c([nH]c3ccccc23)CN1)C(=O)NCc1ccc(C(=N)N)cc1.Cl.Cl [1097_2]: −142.69
C[C@H](NC(=O)[C@H]1C[C@H](Cc2ccccc2)CN1)C(=O)NCc1ccc(C(=N)N)cc1.Cl.Cl [1306_1]: 106.51
C[C@H](NC(=O)[C@@H](CCc1ccccc1)NCc1ccc(N2CCOCC2)cc1)C(=O)NCc1ccc(C(=N)N)cc1: −109.82
CC(NC(=O)C(CCc1ccccc1)NCCCc1ccc(O)cc1)C(=O)NCc1ccc(C(=N)N)cc1.Cl.Cl (stereo not drawn): −128.41
C[C@H](NC(=O)[C@@H](CCc1ccccc1)NCc1ccc(C(=O)N2CCOCC2)cc1)C(=O)NCc1ccc(C(=N)N)cc1.Cl.Cl: 56.56
C[C@H](NC(=O)C1C[C@@H](c2ccccc2)CCN1)C(=O)NCc1ccc(C(=N)N)cc1 (stereo in doubt): −130.71
N=C(N)c1ccc(CNC(=O)[C@@H]2CCN2C(=O)[C@H]2Cc3ccccc3CN2)cc1: −127.27
C[C@H](NC(=O)[C@H](N)CCCc1ccccc1)C(=O)NCc1ccc(C(=N)N)cc1.Cl.Cl [1042_2]: 69.40
C[C@H](NC(=O)[C@H](N)CCCc1ccccc1)C(=O)NCc1ccc(C(=N)N)cc1.Cl.Cl [1042_1]: 9.10

###

# Target desc: MASP-2 CCP2-SP (Homo sapiens (Human))
# Run description: MASP-2 co-crystallization, X-ray crystallography and structure analysis (H-bonds, van der Waals contacts)
# Parameters: unit not given beside the values
# Assay setup: Table A5-1 pharmacophore: distance between elements, S2/S1 region
Counter-ions that a name gives are not always drawn.
Readout kind: d(H4,O1)

Cc1nc(N)ccc1CNC(=O)C(C)NC(=O)[C@H]1C[C@H](c2cccc(-c3ccccc3)c2)CN1 (stereo in doubt): 4.38
CC(NC(=O)C1CC(Cc2ccccc2)CN1)C(=O)NCc1cnc2c(c1)c(Cl)cn2C.Cl.Cl (stereo not drawn) [1450_B]: 3.14
C[C@H](NC(=O)[C@H]1C[C@@H](c2ccccc2)CCN1)C(=O)NCc1cc(Cl)ccc1O.Cl [1078_5]: 2.40
C[C@H](NC(=O)[C@H](N)C1Cc2ccccc2C1)C(=O)NCc1ccc2c(N)nccc2c1.Cl.Cl [1088_A]: 6.97
Cc1nc(N)ccc1CNC(=O)[C@H](C)NC(=O)[C@H]1C[C@@H](c2ccccc2)CCN1 [compound 1253, Dihydrochloride]: 4.38
C[C@H](NC(=O)[C@H](N)CCc1cccc(Cl)c1)C(=O)NCc1ccc(C(=N)N)cc1: 5.10
Cc1nc(N)ccc1CNC(=O)[C@H](C)NC(=O)[C@H]1C[C@@H](c2cccc3ccccc23)CCN1.Cl.Cl [1297_2]: 4.41
Cc1nc(N)ccc1CNC(=O)[C@H](C)NC(=O)[C@H]1C[C@H](Cc2ccccc2)CN1: 4.40
Cc1cc(Cl)cc(CNC(=O)[C@H](C)NC(=O)[C@H]2C[C@H](Cc3ccccc3)CN2)c1O: 3.15
Cc1nc(N)ccc1CNC(=O)[C@H](C)NC(=O)[C@H]1C[C@H](Cc2cccc(-c3ccccc3)c2)CN1: 4.35
C[C@H](NC(=O)[C@H]1C[C@H](Cc2ccccc2)CN1)C(=O)NCc1cc(Cl)ccc1-n1cnnn1 [compound 1371, Hydrochloride]: 3.13
C[C@H](NC(=O)[C@H](N)C1Cc2ccccc2C1)C(=O)NCc1ccc2nc(N)[nH]c2c1: 4.89
C[C@H](NC(=O)[C@H]1C[C@@H](c2ccccc2)CCN1)C(=O)NCc1cc(Cl)ccc1O.Cl [1078_13]: 3.14
C[C@H](NC(=O)[C@H]1C[C@@H](c2ccccc2)CCN1)C(=O)NCc1cc(Cl)ccc1O.Cl [1078_14]: 2.48
C[C@H](NC(=O)[C@H](N)CCCc1ccccc1)C(=O)NCc1ccc(C(=N)N)cc1.Cl.Cl [1042_1]: 3.35

###

# Target desc: MASP-2 CCP2-SP (Homo sapiens (Human), UniProt O00187)
# Sequence (O00187 445-686): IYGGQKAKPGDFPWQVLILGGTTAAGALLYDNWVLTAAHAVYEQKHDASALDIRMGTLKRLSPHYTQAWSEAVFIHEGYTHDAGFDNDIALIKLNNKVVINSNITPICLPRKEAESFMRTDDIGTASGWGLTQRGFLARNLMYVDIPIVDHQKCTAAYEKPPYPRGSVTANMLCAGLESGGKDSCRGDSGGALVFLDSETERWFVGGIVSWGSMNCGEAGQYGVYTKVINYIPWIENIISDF
# Sequence (O00187 364-432 partner): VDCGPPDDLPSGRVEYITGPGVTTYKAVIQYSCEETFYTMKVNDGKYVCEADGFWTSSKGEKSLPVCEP
# Run description: MASP-2 co-crystallization, X-ray crystallography and structure analysis (H-bonds, van der Waals contacts)
# Assay setup: Table A7-2; between pharmacophore elements of the bound compound
Structures can show the parent of a compound that is named as a salt.
// reported Pharmacophore torsion angle a(O1, O2, N2, CA2) per item
Readout kind: Pharmacophore torsion angle a(O1, O2, N2, CA2)

CC(=O)Nc1ccc(CCN[C@H](CCc2ccccc2)C(=O)N[C@@H](C)C(=O)NCc2ccc(N)nc2C)cc1 [compound 1368, Dihydrochloride]: −100.57
Cc1nc(N)ccc1CNC(=O)[C@H](C)NC(=O)[C@H]1C[C@H](Cc2ccc3ccccc3c2)CN1: 124.64
C[C@H](NC(=O)[C@H](N)CCc1cccc(Cl)c1)C(=O)NCc1ccc(C(=N)N)cc1: 142.86
Cc1nc(N)ccc1CNC(=O)[C@H](C)NC(=O)[C@H]1C[C@@H](c2ccccc2)CCN1C: 126.16

###

# Target desc: MASP-2 CCP2-SP (Homo sapiens (Human), UniProt O00187)
# Run description: MASP-2 co-crystallization, X-ray crystallography and structure analysis (H-bonds, van der Waals contacts)
# Set-up: unit not given beside the values
# Assay setup: Table A5-2 pharmacophore distance, S3/S4 region
# Source text: This example illustrates the preparation of recombinant MASP-2 protein, based on UniProt O00187, human mannan-binding lectin serine protease 2. Expression constructs for human MASP-2 CCP2-SP and CCP2-SP-6HIS were generated for recombinant expression in E. coli cells. […]
Where a name gives a salt, the structure may show the parent alone.
Readout kind: d(O2,H3)

CC(=O)Nc1ccc(CCNC(CCc2ccccc2)C(=O)NC(C)C(=O)NCc2ccc(C(=N)N)cc2)cc1.Cl.Cl (centres unmarked) [1345_1]: 5.98
Cc1nc(N)ccc1CNC(=O)C(C)NC(=O)C1CC(c2cccc3ccccc23)CCN1.Cl.Cl (centres unmarked) [1297_3]: 4.22
C[C@H](NC(=O)[C@H]1C[C@@H](c2ccccc2)CCN1)C(=O)NCc1ccc(C(=N)N)cc1 (stereo in doubt) [compound 1065]: 4.40
Cc1nc(N)ccc1CNC(=O)[C@H](C)NC(=O)[C@H]1C[C@@H](c2cccc3ccccc23)CCN1.Cl.Cl [1297_4]: 4.02
Cc1nc(N)ccc1CNC(=O)[C@H](C)NC(=O)[C@H]1C[C@H](Cc2ccccc2-c2ccccc2)CN1 [compound 1373, Di-trifluoroacetate salt]: 4.31
Cc1nc(N)ccc1CNC(=O)[C@H](C)NC(=O)[C@H]1C[C@H](Cc2cccc(Cl)c2)CN1.Cl.Cl [1328_2]: 4.54
CC(=O)Nc1ccc(CCN[C@H](CCc2ccccc2)C(=O)N[C@@H](C)C(=O)NCc2ccc(N)nc2C)cc1 [compound 1368, Dihydrochloride]: 7.79
Cc1nc(N)ccc1CNC(=O)[C@H](C)NC(=O)[C@H]1C[C@H](Cc2cccc(Cl)c2)CN1.Cl.Cl [1328_3]: 4.77
C[C@H](NC(=O)[C@H]1C[C@H](Cc2ccccc2)CN1)C(=O)NCc1cc(Cl)ccc1-n1cnnn1 [compound 1371, Hydrochloride]: 1.96
C[C@H](NC(=O)[C@H]1C[C@@H](c2ccccc2)CCN1)C(=O)NCc1cc(Cl)ccc1O.Cl [1078_9]: 3.06
Cc1nc(N)ccc1CNC(=O)[C@H](C)NC(=O)[C@H]1C[C@H](Cc2cc(-c3ccccc3)cs2)CN1 [compound 1399, Dihydrochloride]: 4.09
C[C@H](NC(=O)[C@H](N)CCc1ccccc1)C(=O)NCc1ccc(C(=N)N)cc1 [compound 1024]: 5.45
C[C@H](NC(=O)[C@H]1C[C@@H](c2ccccc2)CCN1)C(=O)NCc1cc(Cl)ccc1O.Cl [1078_15]: 2.97
C[C@H](NC(=O)[C@H]1C[C@@H](c2ccccc2)CCN1)C(=O)NCc1cc(Cl)ccc1O.Cl [1078_4]: 2.72

###

Reported Pharmacophore torsion angle a(O1, O2, N2, C2) values for a set of molecules
# Target desc: MASP-2 CCP2-SP (Homo sapiens (Human))
# Run description: MASP-2 co-crystallization, X-ray crystallography and structure analysis (H-bonds, van der Waals contacts)
# Assay setup: Table A7-1; between pharmacophore elements of the bound compound
# Description: This example illustrates the preparation of recombinant MASP-2 protein, based on UniProt O00187, human mannan-binding lectin serine protease 2. Expression constructs for human MASP-2 CCP2-SP and CCP2-SP-6HIS were generated for recombinant expression in E. coli cells. […]
Counter-ions that a name gives are not always drawn.
Readout kind: Pharmacophore torsion angle a(O1, O2, N2, C2)

C[C@H](NC(=O)[C@H]1C[C@@H](c2ccccc2)CCN1)C(=O)NCc1cc(Cl)ccc1O.Cl [1078_5]: 148.01
N=C(N)c1ccc(CNC(=O)[C@@H]2CCN2C(=O)[C@H]2Cc3ccccc3CN2)cc1 [compound 1034]: 68.39
Cc1nc(N)ccc1CNC(=O)C(C)NC(=O)C1CC(c2cccc3ccccc23)CCN1.Cl.Cl (stereo not shown) [1297_3]: 114.36
C[C@H](NC(=O)[C@H]1C[C@@H](c2ccccc2)CCN1)C(=O)NCc1cnc2[nH]cc(Cl)c2c1 [compound 1433]: 118.46
Cc1nc(N)ccc1CNC(=O)[C@H](C)NC(=O)[C@H]1C[C@@H](c2cccc3ccccc23)CCN1.Cl.Cl [1297_2]: 116.16
C[C@H](NC(=O)[C@H](N)C1Cc2ccccc2C1)C(=O)NCc1ccc2nc(N)[nH]c2c1 [compound 1059]: 129.30
Cc1nc(N)ccc1CNC(=O)[C@H](C)NC(=O)[C@H]1C[C@@H](c2ccccc2)CCN1 [compound 1253, Dihydrochloride]: 120.69
